# system: T1, human plasma Kallikrein (human, UniProt P03952 20-638)
# T1 construct: also called hPK; human PK
# T1 sequence (P03952 20-638 limits assumed): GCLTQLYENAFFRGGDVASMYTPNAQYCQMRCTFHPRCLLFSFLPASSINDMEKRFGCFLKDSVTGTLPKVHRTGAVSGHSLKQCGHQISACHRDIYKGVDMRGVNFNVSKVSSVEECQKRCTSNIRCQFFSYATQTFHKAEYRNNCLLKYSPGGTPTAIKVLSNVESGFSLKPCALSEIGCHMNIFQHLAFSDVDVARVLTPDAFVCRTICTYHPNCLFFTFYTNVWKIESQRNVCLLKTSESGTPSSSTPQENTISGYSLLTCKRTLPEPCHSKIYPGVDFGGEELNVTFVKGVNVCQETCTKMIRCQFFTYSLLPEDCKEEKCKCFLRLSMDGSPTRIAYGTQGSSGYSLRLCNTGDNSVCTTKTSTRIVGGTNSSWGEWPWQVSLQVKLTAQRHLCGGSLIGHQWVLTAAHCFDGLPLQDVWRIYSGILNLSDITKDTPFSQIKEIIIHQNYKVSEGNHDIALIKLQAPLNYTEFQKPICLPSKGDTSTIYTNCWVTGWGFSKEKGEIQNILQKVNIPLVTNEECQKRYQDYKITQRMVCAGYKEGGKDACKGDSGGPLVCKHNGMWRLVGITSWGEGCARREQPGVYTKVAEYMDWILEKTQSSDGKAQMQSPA
# measurementDescription: enzyme inhibition
Numbered stars: 1 amine (or outer) side, 2 acyl side, 3 side chain; on linkers, the order of the positions; unused ones are H or OH. Bridge positions count the residues as written; N and C are the ends. Ends that are not written are not given here. TBMB = c1c(C[*:1])cc(C[*:3])cc1C[*:2]
propertyLabel: Ki (nM)
Answer in nM, number only, no unit symbol.

QUERY: Ki for ACSWPARCLHQDLCA (linker 2-8-14 via TBMB; not fully specified (N-terminus, C-terminus)) [06-34-18 (01 + 05)] ?
RESULT: 0.04

QUERY: Which measured Ki value corresponds to ACTWPARCTHQNWCA (linker 2-8-14 via TBMB; not fully specified (N-terminus, C-terminus)) [06-09] ?
RESULT: 1.2

QUERY: Fill in the blank: the reported Ki of ACRWPARCLTTSLCA (linker 2-8-14 via TBMB; not fully specified (N-terminus, C-terminus)) [06-59] is ____.
RESULT: 0.5

QUERY: Name the reported Ki value associated with the binder ACTWPARCTMQNWCA (linker 2-8-14 via TBMB; not fully specified (N-terminus, C-terminus)) [06-A2*]
RESULT: 181

Each recorded value in this set is attributed to patent US20180362585A1.
